Known melting point of a selection of compounds
assay.readout: melting point

{"item.smiles": "Cc1c(Br)cc(C(C)(C)C)c(O)c1-c1nc2cc(OC(F)(F)F)ccc2[nH]1", "assay.readout": "melting point", "experimental.result": "235 to 236 °C"}
{"item.smiles": "CCN(CC)S(=O)(=O)c1ccc2[nH]c(-c3c(C)c(Cl)cc(C(C)(C)C)c3O)nc2c1", "assay.readout": "melting point", "experimental.result": "277 to 278 °C"}
{"item.smiles": "COc1ccc(C(C)(C)C)c(O)c1-c1nc2cc(S(=O)(=O)C(F)(F)F)ccc2[nH]1", "assay.readout": "melting point", "experimental.result": "55 to 56 °C"}
{"item.smiles": "Cc1ccc(C(C)(C)C)c(O)c1-c1nc2cc(C#N)ccc2[nH]1", "assay.readout": "melting point", "experimental.result": "212 to 215 °C"}
{"item.smiles": "Cc1ccc(C(C)(C)C)c(O)c1-c1nc2ccc(S(=O)(=O)C(F)(F)F)cc2[nH]1", "assay.readout": "melting point", "experimental.result": "218 to 220 °C"}
{"item.smiles": "Cc1c(F)cc(C(C)(C)C)c(O)c1-c1nc2ccc(S(=O)(=O)C(F)(F)F)cc2[nH]1", "assay.readout": "melting point", "experimental.result": "245 to 247 °C"}
{"item.smiles": "Cc1c(Cl)cc(C(C)(C)C)c(O)c1-c1nc2cc(S(=O)(=O)C(F)(F)F)ccc2[nH]1", "assay.readout": "melting point", "experimental.result": "253 to 254 °C"}
{"item.smiles": "Cc1c(Cl)cc(C(C)(C)C)c(O)c1-c1nc2cc(OC(F)(F)F)ccc2[nH]1", "assay.readout": "melting point", "experimental.result": "243 to 244 °C"}
{"item.smiles": "CSc1cc(C(C)(C)C)c(O)c(-c2nc3cc(S(=O)(=O)C(F)(F)F)ccc3[nH]2)c1C", "assay.readout": "melting point", "experimental.result": "210 to 211 °C"}
